Score_si4 values by entry
- Test system: CHIKV
- Type: cell-based, chikungunya virus
endpoint: Score_si4

[[record]]
substance = "Hs_APEX2_5 (ACGCTGCAGCACAACAATCAA; chemistry not given here) [reference compound]"
endpoint = "Score_si4"
numeric_result = -0.1

[[record]]
substance = "s10955 (sense GAGAAGAAGTATTACTTAT; chemistry not given here)"
endpoint = "Score_si4"
numeric_result = 0.29

[[record]]
substance = "s10857 (sense GAATCCGGTTTGGAATATA; chemistry not given here)"
endpoint = "Score_si4"
numeric_result = -0.29

[[record]]
substance = "Hs_UIP1_3 (CTCGAGGGTCTGTATATCACA; chemistry not given here) [reference compound]"
endpoint = "Score_si4"
numeric_result = 0.1

[[record]]
substance = "s16998 (GAAATTCCATGTCATTGTA; chemistry not given here)"
endpoint = "Score_si4"
numeric_result = 0.65

[[record]]
substance = "s1523 (sense CCGGCATCTTTGCTACCTA; chemistry not given here)"
endpoint = "Score_si4"
numeric_result = 0.87

[[record]]
substance = "s11517 (sense GCGAAGTGTTTGTAAATCA; chemistry not given here)"
endpoint = "Score_si4"
numeric_result = 1.19

[[record]]
substance = "Hs_UBE2C_3 (GCCCTTGTATATTAAATAAAT; chemistry not given here) [reference compound]"
endpoint = "Score_si4"
numeric_result = -0.41

[[record]]
substance = "Hs_NRCAM_2 (AACGCTCATAATTAACATCAT; chemistry not given here)"
endpoint = "Score_si4"
numeric_result = 0.35

[[record]]
substance = "s16317 (GAACGAGTCCTTGAAGGTT; chemistry not given here)"
endpoint = "Score_si4"
numeric_result = 0.08

[[record]]
substance = "Hs_ATF1_6 (AACCTAGTACATTACTAAATA; chemistry not given here) [reference compound]"
endpoint = "Score_si4"
numeric_result = -0.75

[[record]]
substance = "Hs_UQCRFS1_2 (CAAACATTAATGTGAAATAAA; chemistry not given here)"
endpoint = "Score_si4"
numeric_result = 0.3

[[record]]
substance = "Hs_UMPS_1 (CACCGCATTGATACTATAATA; chemistry not given here)"
endpoint = "Score_si4"
numeric_result = 1.35

[[record]]
substance = "s20508 (sense CACTTGAGGAGTTACTGAA; chemistry not given here) [reference compound]"
endpoint = "Score_si4"
numeric_result = -0.76

[[record]]
substance = "Hs_PPIL2_1 (CAGGGACAGCCTATTTATACA; chemistry not given here)"
endpoint = "Score_si4"
numeric_result = 0.92

[[record]]
substance = "s29015 (GAGAGTATATTGACTATGA; chemistry not given here)"
endpoint = "Score_si4"
numeric_result = 0.52

[[record]]
substance = "s31193 (GGAATGATGTCGTCAGTAA; chemistry not given here)"
endpoint = "Score_si4"
numeric_result = 1.58


Reference for the values: paper PMC4865845
